molecular target: UniProt P48736; test: In vitro determination of the PI3K enzyme inhibitory activity in the cell free assay (ADP-Glo Kinase Assay), PI3Kγ; details: ATP 30 μM, read-out: PI3K gamma inhibition
Sequence (P48736 whole entry): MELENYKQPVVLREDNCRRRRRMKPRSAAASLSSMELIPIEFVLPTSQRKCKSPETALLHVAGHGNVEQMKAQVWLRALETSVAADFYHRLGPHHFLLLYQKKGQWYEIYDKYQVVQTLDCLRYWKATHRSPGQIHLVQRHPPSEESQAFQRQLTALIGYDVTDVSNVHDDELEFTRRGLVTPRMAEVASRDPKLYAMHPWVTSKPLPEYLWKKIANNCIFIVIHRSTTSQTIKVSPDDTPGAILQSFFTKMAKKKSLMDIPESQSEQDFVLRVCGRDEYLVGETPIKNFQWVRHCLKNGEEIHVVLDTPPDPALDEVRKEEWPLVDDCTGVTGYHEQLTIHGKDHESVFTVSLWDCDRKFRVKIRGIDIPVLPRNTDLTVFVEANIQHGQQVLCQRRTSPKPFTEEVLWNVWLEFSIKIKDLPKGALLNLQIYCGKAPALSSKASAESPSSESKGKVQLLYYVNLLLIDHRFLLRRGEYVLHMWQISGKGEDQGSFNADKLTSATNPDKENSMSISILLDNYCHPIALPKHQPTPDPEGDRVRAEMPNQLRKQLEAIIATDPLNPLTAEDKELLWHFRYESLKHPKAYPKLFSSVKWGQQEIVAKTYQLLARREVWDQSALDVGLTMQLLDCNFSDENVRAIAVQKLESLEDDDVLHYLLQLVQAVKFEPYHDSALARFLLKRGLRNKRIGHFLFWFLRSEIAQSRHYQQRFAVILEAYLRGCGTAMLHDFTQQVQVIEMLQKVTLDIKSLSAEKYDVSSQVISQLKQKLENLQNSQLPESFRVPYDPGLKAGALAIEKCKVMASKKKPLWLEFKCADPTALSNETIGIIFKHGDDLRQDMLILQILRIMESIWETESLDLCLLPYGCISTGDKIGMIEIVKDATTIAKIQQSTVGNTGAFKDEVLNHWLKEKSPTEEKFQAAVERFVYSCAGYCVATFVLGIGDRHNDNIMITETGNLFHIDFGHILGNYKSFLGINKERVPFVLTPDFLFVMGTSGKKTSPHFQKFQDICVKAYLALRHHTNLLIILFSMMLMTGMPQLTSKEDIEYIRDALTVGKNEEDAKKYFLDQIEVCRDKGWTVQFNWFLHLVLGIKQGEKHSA
test.readout: IC50

Solved cases below.
compound	IC50
CC(Nc1ncnc(N)c1C#N)c1cc2ccccn2c1-c1ccncc1 (stereo not drawn)	10 to 1000 nM
C[C@H](c1cc2ccccn2c1-c1ccn(CCN2CCOCC2)c(=O)c1)n1nc(-c2cc(O)cc(F)c2)c2c(N)ncnc21 (single isomer, unassigned) [Example 121b]	10 to 1000 nM
Cc1cc(-c2c(C(C)n3nc(-c4cc(O)cc(F)c4)c4c(N)ncnc43)cc3ccccn23)ccn1 (stereo not drawn)	10 to 1000 nM
CC(c1cc2cccnn2c1-c1cccc(CN(C)C)c1)n1nc(-c2cc(O)cc(F)c2)c2c(N)ncnc21 (stereo not drawn)	> 1000 nM
CC(Nc1ncnc(N)c1C#N)c1cc2ccccn2c1-c1ccsc1 (stereo not drawn)	> 1000 nM
CC(c1cc2ccccn2c1-c1cccc(CN(C)C)c1)n1nc(-c2cc(O)cc(F)c2)c2c(N)ncnc21 (racemic)	10 to 1000 nM
c1ccc(-c2c(CNc3ncnc4[nH]cnc34)cc3ccccn23)cc1	> 1000 nM
CC(c1cc2ccccn2c1-c1ccc(OCCC2CCN(C)CC2)nn1)n1nc(-c2cc(O)cc(F)c2)c2c(N)ncnc21 (stereo not drawn)	> 1000 nM

Would you mind telling me what IC50 value was observed for C[C@H](c1cc2ccccn2c1-c1cccc(CN(C)C)c1)n1nc(-c2cc(O)cc(F)c2)c2c(N)ncnc21 (single isomer, unassigned) [Example 93a] ?
> 1000 nM

Could you do the same for `N#Cc1c(N)ncnc1NCc1cn2ccccc2c1-c1ccccc1` , please?
> 1000 nM

Could you do the same for `Cc1ccccc1-c1c(CNc2ncnc3[nH]cnc23)cn2ccccc12` , please?
> 1000 nM

These entries and their values trace back to patent US9527869B2.
